# System: Leishmania panamensis
# experiment_summary: Antileshmanial activity against EpiR/GFP fused Leishmania panamensis MHOM/CO/87/UA140 intracellular amastigotes infected in human […] cells after 72 hrs by flow cytometric method
# Assay type: functional, cell-based
# run_parameters: MHOM/CO/87/UA140, 72 h
Decide using EC50 alone. Strictly below 6 µg/mL: Condition met. Equal to or above 6 µg/mL: Condition not met.

Q: Quick check: does Clc1ccc(C2=NN(c3cc(Cl)cc(Cl)c3)C(c3cccc(Nc4ccnc5cc(Cl)ccc45)c3)C2)cc1 (configuration not stated) have EC50 under 6 µg/mL?
A: Condition not met

Q: Quick check: does COc1cc(C2=NN(C=O)C(c3cccc(Nc4ccnc5cc(Cl)ccc45)c3)C2)cc(OC)c1OC (configuration not stated) have EC50 under 6 µg/mL?
A: Condition not met

Q: Quick check: does Cc1ccc(C2=NN(c3ccccc3)C(c3cccc(Nc4ccnc5cc(Cl)ccc45)c3)C2)cc1 (configuration not stated) have EC50 under 6 µg/mL?
A: Condition met

Q: Quick check: does CC(=O)N1N=C(c2ccc(Cl)cc2)CC1c1cccc(Nc2ccnc3cc(Cl)ccc23)c1 (configuration not stated) have EC50 under 6 µg/mL?
A: Condition met

Q: Quick check: does O=CN1N=C(c2ccccc2)CC1c1cccc(Nc2ccnc3cc(Cl)ccc23)c1 (configuration not stated) have EC50 under 6 µg/mL?
A: Condition met

Q: Quick check: does Clc1ccc(N2N=C(c3ccc(Br)cc3)CC2c2cccc(Nc3ccnc4cc(Cl)ccc34)c2)cc1 (configuration not stated) have EC50 under 6 µg/mL?
A: Condition not met

Q: Quick check: does CC(=O)N1N=C(c2ccc(Br)cc2)CC1c1cccc(Nc2ccnc3cc(Cl)ccc23)c1 (configuration not stated) have EC50 under 6 µg/mL?
A: Condition met
